assay: Antiviral activity against HIV1 Y181C mutant in MT4 cells by MTT assay
measured_attribute: EC50 (µM)
Answers are plain numbers, in µM.

Recorded results for 2 molecules are shown here.
[[record]]
structure_string = "COc1ccc(Sc2nc(Cc3c(Cl)cccc3Cl)c(C)c(=O)[nH]2)cn1"
reading = 6.52

[[record]]
structure_string = "Cc1c(Cc2c(Cl)cccc2Cl)nc(Sc2ccc(C#N)cc2)[nH]c1=O"
reading = 5.1


Task: What value of EC50 has been reported for the following molecule? `Cc1c(Cc2c(Cl)cccc2Cl)nc(Sc2ccccc2)[nH]c1=O`
Output: 12.1

###

assay: Antiviral activity against HIV1 K103N mutant in MT4 cells by MTT assay
measured_attribute: EC50

[[record]]
structure_string = "Cc1c(Cc2c(F)cccc2F)nc(Sc2ccc(F)cc2F)[nH]c1=O"
reading = "> 65.8 µM"


I'm hoping you can list EC50 for every molecule here, please.
1. Cc1cn([C@H]2C[C@H](N=[N+]=[N-])[C@@H](CO)O2)c(=O)[nH]c1=O
2. Cc1c(Cc2c(Cl)cccc2Cl)nc(Sc2ccc(C#N)cc2)[nH]c1=O
3. COc1ccc(Sc2nc(Cc3c(F)cccc3F)c(C)c(=O)[nH]2)cc1
4. Cc1c(Cc2c(Cl)cccc2Cl)nc(Sc2ccc(F)cc2F)[nH]c1=O
5. COc1ccc(Sc2nc(Cc3c(Cl)cccc3Cl)c(C)c(=O)[nH]2)cc1

Output:
1. 0.003 µM
2. > 27.6 µM
3. > 57.5 µM
4. > 60.5 µM
5. > 61.4 µM

Please state EC50 for every molecule in the list that follows.
1. COc1ccc(Sc2nc(Cc3c(Cl)cccc3Cl)c(C)c(=O)[nH]2)cn1
2. Cc1c(Cc2c(Cl)cccc2Cl)nc(Sc2ccccc2)[nH]c1=O
3. Cc1c(Cc2c(F)cccc2F)nc(Sc2ccc(Cl)cc2)[nH]c1=O
4. Cc1c(Cc2c(F)cccc2F)nc(Sc2ccccc2)[nH]c1=O

Output:
> 61.7 µM
> 66.3 µM
8.01 µM
42.5 µM

The measured values listed here are drawn from BindingDB's records for doi:10.1016/j.bmcl.2006.03.080.
